{"molecule": "CCCCOc1nc(N)c2[nH]c(=O)n(CCCCN(CC(C)(C)CN(C)C)S(=O)(=O)c3cccc(CC(=O)O)c3)c2n1 [Example 2-20]", "melting point": "175 to 176 °C"}
{"molecule": "CCCCOc1nc(N)c2[nH]c(=O)n(CCCCN(CCN3CCOCC3)Cc3cccc(CC(=O)OC)c3)c2n1 [Example 2-35]", "melting point": "189 to 190 °C"}
{"molecule": "CCCCOc1nc(N)c2[nH]c(=O)n(CCCNc3cccc(CC(=O)OC)c3)c2n1 [Example 2-42]", "melting point": "208 to 209 °C"}
{"molecule": "CCCCOc1nc(N)c2[nH]c(=O)n(CCCCN(CC(C)(C)O)S(=O)(=O)c3cccc(CC(=O)OC)c3)c2n1 [Example 2-22]", "melting point": "192 to 193 °C"}
{"molecule": "CCCCOc1nc(N)c2[nH]c(=O)n(CCCNc3cccc(CC(=O)O)c3)c2n1 [Example 2-43]", "melting point": "247 °C"}
